Cited source for all entries: the FLAb antibody collection (doi:10.7554/elife.23156)

Each item that follows carries a reported pKd.
B1: scFv; the commonest letter at each place (parent)
chain 1: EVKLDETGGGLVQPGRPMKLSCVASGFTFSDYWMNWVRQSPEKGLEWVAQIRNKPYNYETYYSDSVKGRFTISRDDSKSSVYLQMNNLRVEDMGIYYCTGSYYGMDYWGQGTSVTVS
chain 2: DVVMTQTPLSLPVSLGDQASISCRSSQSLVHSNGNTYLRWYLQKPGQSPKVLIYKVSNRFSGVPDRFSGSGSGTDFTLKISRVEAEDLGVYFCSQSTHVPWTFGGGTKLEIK

Variants of: B1
Experiment: Kd (Tite-Seq)
Conditions: with fluorescein; format: scFv 4-4-20, heavy + light
Bear in mind: pKd is minus log10 of a mol/L concentration; give just that figure.

>>> df
             variant  measurement_label  assay_value
0  chain 1 M34F W36Y                pKd         8.33

// moving on: another record for pKd
Q. Given the entry chain 1 Y32A , report its measured pKd.
A. 8.00
